biological target: human αVβ6 (Homo sapiens, UniProt P06756+P18564); construct: purchased R & D systems 3817-AV; assay: human αVβ6 HTRF binding assay; conditions: alternatively SPA-based assay
Sequence (P06756 31-992 limits assumed): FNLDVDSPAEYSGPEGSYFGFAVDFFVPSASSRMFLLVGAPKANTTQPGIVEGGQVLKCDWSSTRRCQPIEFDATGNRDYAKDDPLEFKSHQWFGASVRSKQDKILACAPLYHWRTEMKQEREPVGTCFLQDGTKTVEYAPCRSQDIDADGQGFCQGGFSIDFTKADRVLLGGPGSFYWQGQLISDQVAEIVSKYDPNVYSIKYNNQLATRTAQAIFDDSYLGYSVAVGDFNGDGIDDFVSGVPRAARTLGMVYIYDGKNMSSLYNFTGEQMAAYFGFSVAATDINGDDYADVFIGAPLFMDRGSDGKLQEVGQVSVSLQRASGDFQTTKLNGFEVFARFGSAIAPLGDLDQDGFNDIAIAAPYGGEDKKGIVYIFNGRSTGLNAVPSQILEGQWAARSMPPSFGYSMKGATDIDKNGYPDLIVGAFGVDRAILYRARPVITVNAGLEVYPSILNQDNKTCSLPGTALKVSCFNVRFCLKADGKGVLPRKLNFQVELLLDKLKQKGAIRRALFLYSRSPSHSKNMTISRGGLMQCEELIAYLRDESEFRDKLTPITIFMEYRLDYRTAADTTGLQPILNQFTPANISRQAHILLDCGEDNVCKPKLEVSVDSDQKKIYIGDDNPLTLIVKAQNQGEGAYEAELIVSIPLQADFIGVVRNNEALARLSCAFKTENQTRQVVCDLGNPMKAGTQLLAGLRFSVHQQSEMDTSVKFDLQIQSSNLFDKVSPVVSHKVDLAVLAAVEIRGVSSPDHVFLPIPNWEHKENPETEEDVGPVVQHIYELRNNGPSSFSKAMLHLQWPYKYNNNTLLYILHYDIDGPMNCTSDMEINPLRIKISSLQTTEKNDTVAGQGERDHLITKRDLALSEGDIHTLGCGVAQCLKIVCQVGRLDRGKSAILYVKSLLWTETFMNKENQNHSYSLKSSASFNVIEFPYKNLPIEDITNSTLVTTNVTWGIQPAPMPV
Sequence (P18564 22-707 limits assumed): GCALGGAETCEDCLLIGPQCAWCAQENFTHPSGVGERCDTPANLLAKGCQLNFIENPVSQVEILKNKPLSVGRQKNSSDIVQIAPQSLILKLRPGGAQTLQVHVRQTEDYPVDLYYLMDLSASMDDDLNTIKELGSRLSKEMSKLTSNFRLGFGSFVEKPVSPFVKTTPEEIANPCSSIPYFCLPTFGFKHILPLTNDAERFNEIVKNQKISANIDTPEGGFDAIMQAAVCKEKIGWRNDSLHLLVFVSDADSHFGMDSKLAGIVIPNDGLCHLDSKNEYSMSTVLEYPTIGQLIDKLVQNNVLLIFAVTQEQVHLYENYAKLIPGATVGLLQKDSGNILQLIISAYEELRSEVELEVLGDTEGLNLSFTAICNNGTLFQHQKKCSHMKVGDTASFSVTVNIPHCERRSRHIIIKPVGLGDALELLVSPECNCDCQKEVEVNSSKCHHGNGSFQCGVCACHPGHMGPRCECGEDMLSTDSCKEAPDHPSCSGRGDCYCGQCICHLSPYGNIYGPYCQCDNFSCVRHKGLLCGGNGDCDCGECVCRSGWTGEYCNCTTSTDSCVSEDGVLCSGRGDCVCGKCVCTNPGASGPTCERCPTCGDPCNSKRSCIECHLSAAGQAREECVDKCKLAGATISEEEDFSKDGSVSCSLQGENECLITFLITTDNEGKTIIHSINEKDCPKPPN
reported.property: IC50 (nM)
Respond with the bare value in nM.

{"compound": "COc1ccc([C@H](CC(=O)O)NC(=O)C2CC3(C2)CN(CCc2ccc4c(n2)NCCC4)C3)cc1F", "reported.value": 8.4}
{"compound": "COc1ccc([C@@H](CC(=O)O)C2(F)CN(C(=O)CCCc3ccc4c(n3)NCCC4)C2)cn1 (single isomer, unassigned)", "reported.value": 170}
{"compound": "O=C(O)C[C@@H](c1ccc2c(c1)OCC2)N1CC(CCCCc2ccc3c(n2)NCCC3)C1=O (stereo partly shown) [Example 105]", "reported.value": 3.9}
{"compound": "O=C(O)CC(c1cnc2ccccc2c1)C1(F)CN(CCCCc2ccc3c(n2)NCCC3)C1 (stereo not shown)", "reported.value": 5.9}
{"compound": "O=C(O)C[C@H](NC(=O)[C@H]1C[C@H](CCc2ccc3c(n2)NCCC3)C1)c1cc(Cl)cc(Cl)c1", "reported.value": 1.2}

Field request: IC50 | item: COc1ccc(C(CC(=O)O)N2CC3(CC(CCc4ccc5c(n4)NCCC5)C3)C2)cc1F (stereo not shown)
2.2

And then O=C(O)CCN(C(=O)OCc1ccccc1)C1CN(CCCc2ccc3c(n2)NCCC3)C1 , what is it?
7.4

* * *

target: human αVβ8 (Homo sapiens, UniProt P06756+P26012); experiment: human αVβ8 HTRF binding assay; details: alternatively SPA-based assay
Sequence (P06756 31-992 limits assumed): as the sequence (P06756 31-992 limits assumed) above
Sequence (P26012 43-684 limits assumed): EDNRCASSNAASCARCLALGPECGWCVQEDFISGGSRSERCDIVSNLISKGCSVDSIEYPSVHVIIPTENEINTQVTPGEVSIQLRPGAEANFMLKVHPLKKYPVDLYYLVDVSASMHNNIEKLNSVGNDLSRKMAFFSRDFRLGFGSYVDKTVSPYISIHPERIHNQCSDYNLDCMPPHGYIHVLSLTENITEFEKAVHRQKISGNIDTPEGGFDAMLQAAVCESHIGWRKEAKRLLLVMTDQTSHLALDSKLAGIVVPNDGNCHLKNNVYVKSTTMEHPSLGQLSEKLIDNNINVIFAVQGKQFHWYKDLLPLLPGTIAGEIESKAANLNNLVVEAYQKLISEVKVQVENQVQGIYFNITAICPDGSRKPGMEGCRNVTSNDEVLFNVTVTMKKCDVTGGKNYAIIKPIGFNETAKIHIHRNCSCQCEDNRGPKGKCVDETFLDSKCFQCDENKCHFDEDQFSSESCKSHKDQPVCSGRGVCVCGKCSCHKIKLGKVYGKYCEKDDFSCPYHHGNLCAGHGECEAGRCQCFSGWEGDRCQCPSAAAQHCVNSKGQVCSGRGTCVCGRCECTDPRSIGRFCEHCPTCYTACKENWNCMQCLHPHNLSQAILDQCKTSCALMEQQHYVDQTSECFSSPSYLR
reported.property: pIC50
In plain terms, pIC50 is the concentration in mol/L turned into minus its base-10 logarithm.

Study these solved cases before continuing.
{"compound": "O=C(O)C[C@H](NC(=O)C1(F)CN(CCc2ccc3c(n2)NCCC3)C1)c1cnc2ccccc2c1", "pIC50": 7.31}
{"compound": "Cc1cc(C)c(S(=O)(=O)N[C@@H](CNC(=O)C2(F)CN(CCc3ccc4c(n3)NCCC4)C2)C(=O)O)c(C)c1", "pIC50": 7.52}
{"compound": "O=C(O)C[C@H](NC(=O)N1CC(CCc2ccc3c(n2)NCCC3)C1)c1ccc2c(c1)OCC2", "pIC50": 6.55}
{"compound": "O=C(O)C[C@H](NC(=O)[C@H]1C[C@H](CCc2ccc3c(n2)NCCC3)C1)c1ccc2c(c1)OCC2", "pIC50": 6.72}
{"compound": "O=C(O)C[C@@H](c1ccc2c(c1)OCC2)N1CC(CCCCc2ccc3c(n2)NCCC3)C1=O (stereo partly drawn)", "pIC50": 6.96}
{"compound": "O=C(N[C@@H](CNC(=O)[C@H]1C[C@@H](CCc2ccc3c(n2)NCCC3)C1)C(=O)O)OCc1ccccc1", "pIC50": 7.09}
{"compound": "O=C(O)C[C@H](NC(=O)N1CC(CCc2ccc3c(n2)NCCC3)C1)c1cnc2ccccc2c1", "pIC50": 6.92}
{"compound": "Cc1ncc([C@H](CC(=O)O)NC(=O)[C@H]2C[C@@H](CCc3ccc4c(n3)NCCC4)C2)cn1", "pIC50": 6.03}

For the compound COc1ccc([C@H](CC(=O)O)NC(=O)N2CC(CCc3ccc4c(n3)NCCC4)C2)cn1 , what pIC50 is on record?
6.37

How about this compound: COc1ncc([C@H](CC(=O)O)N2CC(CCCCc3ccc4c(n3)NCCC4)C2=O)cn1 (stereo partly drawn)
5.70
